# reported TGI; entries follow
- System: 786-0 renal
- assay-summary: NCI tumour cell line growth inhibition, 48 h

Solved cases (3 shown):
1) O=c1[nH]/c(=C/c2ccc3c(c2)OCO3)c(=O)[nH]/c1=C/c1ccc2c(c1)OCO2 : > 10 µM
2) O=C(Cc1ccccc1)NN1C(=O)C(Cl)C1c1ccccc1Cl (centres undefined) : > 100 µM
3) CSC1=NC(=Nc2c(C)cccc2C)C2(CCC(C(C)(C)C)CC2)N1c1ccc(Cl)cc1 (centres undefined) : > 100 µM

Task item: // lookup TGI for COc1ccc(-c2cc(=O)c3c(O)c(OC)c(OC)c(OC)c3o2)cc1OC
Reply: > 100 µM
